test: In vivo pharmacokinetic test, drug concentration in blood plasma by LC-MS/MS; parameters: species or system SD rats; details: SD, rat, plasma, po, 10 mg/kg, SD rats, oral 10 mg/kg, 0.25 h, animal 203M
measurement-label: concentration at 0.25 h (ng/mL)
Please state the figure in ng/mL; there is no need to write the unit.

Q: Supply reported concentration at 0.25 h belonging to this compound: CCOc1cccc(Nc2nn(C)c3c2Cc2cc(OCC)c(OCC(N)=O)cc2-3)c1
Ans: 216

----------
assay: In vivo pharmacokinetic test, drug concentration in blood plasma by LC-MS/MS; set-up: species or system SD rats; settings: male, SD, rat, plasma, iv, 1 mg/kg, male SD rats, single intravenous 1 mg/kg, animal 101M; read-out: AUCINF—pred
measurement-label: AUC(0-inf) (ng·h/mL)
Please state the figure in ng·h/mL; there is no need to write the unit.

Q: Supply reported AUC(0-inf) belonging to this compound: CCOc1cccc(Nc2nn(C)c3c2Cc2cc(OCC)c(OCC(N)=O)cc2-3)c1
Ans: 3100
